# protocol-summary: solvent given as SMILES
# particulars: in CC#N
As shown below, each of these compounds has a reported absorption maximum value.
Write down the numeric answer in nm and omit the unit.

Reference set (2 entries):
INSERT INTO measurements (smiles_entry, unit_string, recorded_value) VALUES
  ('O=C1NC(=O)C(c2c[nH]c3ccccc23)=C1c1c[nH]c2ccccc12', 'nm', 446),
  ('Nc1n[n+]([O-])c2ccccc2[n+]1[O-]', 'nm', 477);

Recorded result, "CC1(C)CC(/C=C/c2ccc(-n3ccnc3)cc2)=CC(=C(C#N)C#N)C1" , absorption maximum: 390

* * *

# protocol-summary: solvent given as SMILES
# particulars: in ClCCl
As shown below, each of these molecules has a reported absorption maximum value.
Write down the numeric answer in nm and omit the unit.

INSERT INTO results (smiles_entry, measured_parameter, recorded_value) VALUES
  ('CCCCCCCCCCCCCCCC[n+]1ccc(/C=C/c2ccc(N(C)C)cc2)cc1', 'absorption maximum', 515.2);

Recorded result, "Cc1c2ccc(=[N+]3CCCCC3)cc-2oc2cc(N3CCCCC3)ccc12" , absorption maximum: 555

Recorded result, "CCCCN(CCCC)c1ccc(C#Cc2cc(C#Cc3ccc(N(CCCC)CCCC)cc3)c(C#Cc3c(F)c(F)c(F)c(F)c3F)cc2C#Cc2c(F)c(F)c(F)c(F)c2F)cc1" , absorption maximum: 438

Recorded result, "CN(C)c1ccc(C#Cc2ccc3ccc4c(C#Cc5ccc(N(C)C)cc5)ccc5ccc2c3c54)cc1" , absorption maximum: 439

* * *

# protocol-summary: solvent given as SMILES
# particulars: in Cc1ccccc1
As shown below, each of these compounds has a reported absorption maximum value.
Remember to quote the unit after the number.

INSERT INTO results (smiles_entry, measured_parameter, recorded_value) VALUES
  ('CCN(CC)c1ccc(-c2ccc(-c3nc(C#N)c4ccccc4n3)s2)cc1', 'absorption maximum', '402 nm'),
  ('c1ccc2c(-n3cnc4ccccc43)cccc2c1', 'absorption maximum', '282 nm'),
  ('CCOC(=O)/C(C#N)=C\c1ccc2c(c1)c1ccccc1n2-c1ccc(C)cc1', 'absorption maximum', '396 nm'),
  ('CC1(C)OB(c2cc3ccc4cc(B5OC(C)(C)C(C)(C)O5)cc5ccc(c2)c3c45)OC1(C)C', 'absorption maximum', '398 nm'),
  ('N#C/C(=C\c1cn(-c2ccccc2)nc1-c1ccccc1)c1nc2ccccc2s1', 'absorption maximum', '387 nm');

Recorded result, "Cc1nc(-c2ccc(-n3c4ccccc4c4ccccc43)cc2)cc(-c2ccc(-n3c4ccccc4c4ccccc43)cc2)n1" , absorption maximum: 355 nm

Recorded result, "CCN(CC)c1ccc2cc(/C=C/C3=C4CC/C(=C\c5cc6ccc(N(CC)CC)cc6oc5=O)C4=[O+][B-](F)(F)O3)c(=O)oc2c1" , absorption maximum: 629 nm

Recorded result, "CC1=[N+]2C(=C(c3c4ccccc4cc4ccccc34)c3ccc(C)n3[B-]2(F)F)C=C1" , absorption maximum: 519 nm

Recorded result, "CC1(C)c2ccccc2N(c2ccc(-c3ncccn3)cc2)c2ccccc21" , absorption maximum: 359 nm

* * *

# protocol-summary: solvent given as SMILES
# particulars: in CC#N
As shown below, each of these compounds has a reported absorption maximum value.
Write down the numeric answer in nm and omit the unit.

Reference set (5 entries):
INSERT INTO measurements (compound, measured_parameter, unit_string, recorded_value) VALUES
  ('CCCCCCc1ccc(-n2c3[n+](c4c5ccccc5c5ccccc5c42)[B-](C)(C)c2cc(-n4c5ccccc5c5ccccc54)ccc2-3)cc1', 'absorption maximum', 'nm', 369),
  ('C=CCNc1ccc2ccc3oc4cc(=[N+](C)C)ccc-4nc3c2c1', 'absorption maximum', 'nm', 569),
  ('NS(=O)(=O)c1ccc(N2N=C(c3ccc(O)cc3)CC2c2ccc([N+](=O)[O-])cc2)cc1 (centres undefined)', 'absorption maximum', 'nm', 352),
  ('COC1=[N+]2C(=C(c3ccccc3)c3cc(SC#N)c(OC)n3[B-]2(F)F)C=C1SC#N', 'absorption maximum', 'nm', 513),
  ('Nc1cccc2c1-c1ccccc1C2=O', 'absorption maximum', 'nm', 451);

Recorded result, "CCN(CC)c1ccc2cc(/C=C(\C#N)c3nc4ccccc4s3)c(=O)oc2c1" , absorption maximum: 506

Recorded result, "O=C1c2cc(F)ccc2-c2cnccc21" , absorption maximum: 408.61

Recorded result, "Cc1cc(C)c(C)c(-c2ccc3cc(C)c(=O)oc3c2)c1C" , absorption maximum: 314

* * *

# protocol-summary: solvent given as SMILES
# particulars: in CC#N
measured-parameter: absorption maximum (nm)
Write down the numeric answer in nm and omit the unit.

Reference set (3 entries):
INSERT INTO measurements (compound, measured_parameter, unit_string, recorded_value) VALUES
  ('CN(C)c1nc(N)c2nc(C#N)n(Cc3ccccc3)c2n1', 'absorption maximum', 'nm', 338),
  ('N#Cc1cc2ccccc2[nH]1', 'absorption maximum', 'nm', 279.69),
  ('CCOC(=O)c1sc(SC)c2c(=O)[nH]nnc12', 'absorption maximum', 'nm', 381);

Recorded result, "Cc1cc(O)c(C(=O)/C=C/c2ccccc2Cl)c(=O)o1" , absorption maximum: 353

Recorded result, "CC1(C)CC(/N=C/c2ccc3ccc4cccc5ccc2c3c45)CC(C)(C)N1[O]" , absorption maximum: 359

Recorded result, "CN(C)c1ccc(-c2nc3nccnc3n2-c2ccccc2)cc1" , absorption maximum: 371

Recorded result, "C(/C=C/c1ccc(N(c2ccccc2)c2ccccc2)cc1)=C\c1ccncc1" , absorption maximum: 396

Recorded result, CCC1=C(C)C2=Cc3c4ccccc4c4n3[B-](c3ccccc3)(Oc3ccccc3-4)[N+]2=C1C (stereo not given) , absorption maximum: 621

Recorded result, "COc1cc(OC)c2c(c1)C(=O)c1cc(OC)cc(OC)c1-2" , absorption maximum: 504

Recorded result, "COc1cccc(C2=c3c(c4ccc(C(C)(C)C)cc4c4cc(C(C)(C)C)ccc34)=[N+]3C2=C(c2ccccc2)c2c(-c4cccc(OC)c4)c4c5ccc(C(C)(C)C)cc5c5cc(C(C)(C)C)ccc5c4n2[B-]3(F)F)c1" , absorption maximum: 670

* * *

# protocol-summary: solvent given as SMILES
# particulars: in CC(C)=O
Rule: rule met for absorption maximum not less than 400 nm, rule not met for anything less.

Check out these entries, answers already filled in.
INSERT INTO measurements (smiles_entry, cat) VALUES
  ('CC(C)(C)c1ccc2c(c1)c1cc(C(C)(C)C)ccc1n2-c1cccc(-c2nc(-c3cccc(P(=O)(c4ccccc4)c4ccccc4)c3)nc(-c3cccc(P(=O)(c4ccccc4)c4ccccc4)c3)n2)c1', 'rule not met'),
  ('CCC(=O)c1ccc2cc(N(C)C)ccc2c1', 'rule not met'),
  ('O=Cc1c(O)c(-c2nc3ccccc3s2)cc2ccccc12', 'rule not met');

QUERY: Please indicate if the recorded absorption maximum for "CN(C)c1ccc2nc3c(cc2c1)c(-c1ccccc1)nn3-c1ccccc1" meets or exceeds 400 nm.
RESULT: rule met

QUERY: Please indicate if the recorded absorption maximum for "COc1ccc(/C=C/C2=CC(/C=C/c3ccc(OC)c4ccccc34)=[O+][B-](F)(F)O2)c2ccccc12" meets or exceeds 400 nm.
RESULT: rule met

QUERY: Please indicate if the recorded absorption maximum for "CC1=CC(C)=[N+]2C1=C(c1ccc(N(C)C)cc1)c1c(C)cc(C)n1[B-]2(F)F" meets or exceeds 400 nm.
RESULT: rule met

QUERY: Please indicate if the recorded absorption maximum for "CCC1=C(C)C(=O)n2c1cc1c(CCC(=O)O)c(C)c(C)n1c2=O" meets or exceeds 400 nm.
RESULT: rule met

* * *

# protocol-summary: solvent given as SMILES
# particulars: in CC(C)O
measured-parameter: absorption maximum (nm)
Write down the numeric answer in nm and omit the unit.

Recorded result, "Nc1ccc2c(c1)Cc1ccccc1-2" , absorption maximum: 317

Recorded result, "COCCOCCOCCOc1cc(C=O)c(OCCOCCOCCOC)cc1C=O" , absorption maximum: 391

* * *

# protocol-summary: solvent given as SMILES
# particulars: in C1CCOC1
As shown below, each of these compounds has a reported absorption maximum value.
Write down the numeric answer in nm and omit the unit.

Recorded result, "CC(C)(C)c1ccc2c(c1)c1cc(C(C)(C)C)ccc1n2-c1cccc(-c2nc(-c3cccc(P(=O)(c4ccccc4)c4ccccc4)c3)nc(-c3cccc(P(=O)(c4ccccc4)c4ccccc4)c3)n2)c1" , absorption maximum: 343

* * *

# protocol-summary: solvent given as SMILES
# particulars: in C1CCOC1
As shown below, each of these molecules has a reported absorption maximum value.
Remember to quote the unit after the number.

Reference set (2 entries):
INSERT INTO results (smiles_entry, measured_parameter, recorded_value) VALUES
  ('CN(C)c1ccc(/C=C/c2ccc(-c3cc(-c4ccccn4)nc(-c4ccccn4)c3)cc2)cc1', 'absorption maximum', '375 nm'),
  ('Cc1cc(=O)c2ccc(N)cc2o1', 'absorption maximum', '323 nm');

Recorded result, "Cc1ccc(C2=C3C=CC([Te]c4ccccc4)=[N+]3[B-](F)(F)n3c([Te]c4ccccc4)ccc32)cc1" , absorption maximum: 620 nm

Recorded result, "CCC1(CC)c2cc(B(c3c(C)cc(C)cc3C)c3c(C)cc(C)cc3C)ccc2-c2c1c1c(c3c2C(CC)(CC)c2cc(B(c4c(C)cc(C)cc4C)c4c(C)cc(C)cc4C)ccc2-3)C(CC)(CC)c2cc(B(c3c(C)cc(C)cc3C)c3c(C)cc(C)cc3C)ccc2-1" , absorption maximum: 362 nm
